Hey, just so you know, these numbers are from patent US9725459B2.

measurement target: human cathepsin L (CatL) (Homo sapiens (Human), UniProt P07711)
Sequence (P07711 114-333): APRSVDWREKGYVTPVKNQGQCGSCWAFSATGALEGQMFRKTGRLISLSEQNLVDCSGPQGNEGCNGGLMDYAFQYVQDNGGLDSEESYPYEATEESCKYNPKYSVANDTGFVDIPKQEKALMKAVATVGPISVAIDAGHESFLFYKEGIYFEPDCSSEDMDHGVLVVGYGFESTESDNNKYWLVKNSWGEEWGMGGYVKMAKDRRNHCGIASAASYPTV
protocol summary: CatL functional enzyme assay
Format: biochemical
condition details: read-out: hCatL, inhibition [%] at 31.6 μM
reported metric: inhibition at 31.6 µM (%)
# unit: % | format: bare number

# count of solved cases: 6
>>> reported_measurement("Cc1cc(-c2cnc(C(=O)N[C@H](C(=O)N3C[C@H](Cl)[C@H]4OCC(=O)[C@H]43)C3CCCCC3)s2)ccn1")
6
>>> reported_measurement("CCc1cc(-c2ccc(C(=O)N[C@H](C(=O)N3C[C@H](Cl)[C@H]4OCC(=O)[C@H]43)C3CCCCC3)s2)ccn1")
25
>>> reported_measurement("O=C(N[C@H](C(=O)N1C[C@H](Cl)[C@H]2OCC(=O)[C@H]21)C1CCCCC1)c1ccc(-c2ccncc2F)s1")
14
>>> reported_measurement("O=C(N[C@H](C(=O)N1C[C@H](Cl)[C@H]2OCC(=O)[C@H]21)C1CCCCC1)c1ccc(-c2ncccn2)s1")
4
>>> reported_measurement("CS(=O)(=O)c1cnnc(-c2ccc(C(=O)N[C@H](C(=O)N3C[C@H](Cl)[C@H]4OCC(=O)[C@H]43)C3CCCCC3)s2)c1")
21
>>> reported_measurement("O=C(N[C@H](C(=O)N1C[C@H](Cl)[C@H]2OCC(=O)[C@H]21)C1CCCCC1)c1ncc(-c2ccncn2)s1")
32

Return the recorded inhibition at 31.6 µM value; entry: Cc1nc(-c2cccnc2)sc1C(=O)N[C@H](C(=O)N1C[C@H](Cl)[C@H]2OCC(=O)[C@H]21)C1CCCCC1 21

Return the recorded inhibition at 31.6 µM value; entry: O=C(N[C@H](C(=O)N1C[C@H](Cl)[C@H]2OCC(=O)[C@H]21)C1CCCCC1)c1ccc(-c2ccc[n+]([O-])n2)s1 25

Return the recorded inhibition at 31.6 µM value; entry: O=C(N[C@H](C(=O)N1C[C@H](Cl)[C@H]2OCC(=O)[C@H]21)C1CCCCC1)c1ncc(-c2ccnc(C3CC3)c2)s1 24

Return the recorded inhibition at 31.6 µM value; entry: O=C(N[C@H](C(=O)N1C[C@H](Cl)[C@H]2OCC(=O)[C@H]21)C1CCCCC1)c1ccc(-c2cnc(C(F)(F)F)nc2)s1 0

Return the recorded inhibition at 31.6 µM value; entry: O=C(N[C@H](C(=O)N1C[C@H](Cl)[C@H]2OCC(=O)[C@H]21)C1CCCCC1)c1ccc(-c2ccc[n+]([O-])c2)s1 41

###

measurement target: human cathepsin S (CatS) (Homo sapiens (Human), UniProt P25774)
Sequence (P25774 115-331): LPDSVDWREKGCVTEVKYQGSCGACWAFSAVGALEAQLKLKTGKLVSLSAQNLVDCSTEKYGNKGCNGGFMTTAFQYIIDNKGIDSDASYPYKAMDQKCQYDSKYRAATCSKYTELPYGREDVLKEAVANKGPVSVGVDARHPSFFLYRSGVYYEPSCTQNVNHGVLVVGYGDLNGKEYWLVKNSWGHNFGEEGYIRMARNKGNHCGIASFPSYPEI
protocol summary: CatS functional enzyme assay
Assay type: biochemical
condition details: recombinant human CatS, substrate Z-VVR-AMC 5 μM, pH 6.5; Ki by Cheng Prusoff equation; read-out: hCatS, Ki
reported metric: pKi
The quantity pKi is defined as the negative base-10 logarithm of the molar concentration.

>>> reported_measurement("O=C(N[C@H](C(=O)N1C[C@H](Cl)[C@H]2OCC(=O)[C@H]21)C1CCCCC1)c1ccc(-c2ccc[n+]([O-])n2)s1")
7.25
>>> reported_measurement("O=C(N[C@H](C(=O)N1C[C@H](Cl)[C@H]2OCC(=O)[C@H]21)C1CCCCC1)c1sc(-c2ccnnc2)cc1F")
6.62

Return the recorded pKi value; entry: Cc1ccc(-c2ccc(C(=O)N[C@H](C(=O)N3C[C@H](Cl)[C@H]4OCC(=O)[C@H]43)C3CCCCC3)s2)nn1 6.76
